target: Mm_Fpr2 (Mus musculus); construct: expressed in transfected cells; assay: BRET receptor-RLuc8 interaction with Venus-mGsi; type: cell-based
Sequence (O88536 whole entry): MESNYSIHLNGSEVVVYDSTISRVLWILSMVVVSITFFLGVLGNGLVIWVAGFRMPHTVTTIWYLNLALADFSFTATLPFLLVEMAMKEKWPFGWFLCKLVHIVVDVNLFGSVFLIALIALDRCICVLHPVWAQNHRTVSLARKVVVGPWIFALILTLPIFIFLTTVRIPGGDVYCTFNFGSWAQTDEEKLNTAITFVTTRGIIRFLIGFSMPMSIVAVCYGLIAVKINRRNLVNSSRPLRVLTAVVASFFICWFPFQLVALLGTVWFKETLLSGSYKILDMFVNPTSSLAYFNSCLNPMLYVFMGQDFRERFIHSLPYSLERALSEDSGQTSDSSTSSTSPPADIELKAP

Molecule	Unit string	Emax
CSCC[C@H](NC(=O)[C@H](Cc1ccc(O)cc1)NC(=O)[C@H](CCCCN)NC(=O)[C@@H](N)Cc1c[nH]c2ccccc12)C(=O)N[C@H](C(=O)N[C@H](CCSC)C(N)=O)C(C)C [WKYMVm]	%	103

---

target: Mm_Fpr1 (Mus musculus, UniProt P33766); construct: expressed in transfected cells; experiment: Internalization of FLAG-tagged receptors by flow cytometry; format: cell-based
Sequence (P33766 whole entry): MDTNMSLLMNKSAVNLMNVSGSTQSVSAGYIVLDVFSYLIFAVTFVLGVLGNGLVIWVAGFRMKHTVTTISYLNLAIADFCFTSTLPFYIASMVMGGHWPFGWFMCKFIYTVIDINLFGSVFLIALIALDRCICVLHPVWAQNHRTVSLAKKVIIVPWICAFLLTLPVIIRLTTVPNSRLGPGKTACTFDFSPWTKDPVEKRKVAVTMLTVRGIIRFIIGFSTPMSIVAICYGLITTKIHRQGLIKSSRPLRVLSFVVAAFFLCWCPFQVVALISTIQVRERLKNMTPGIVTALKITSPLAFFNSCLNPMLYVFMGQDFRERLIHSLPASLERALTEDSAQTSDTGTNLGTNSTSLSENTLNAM
pEC50: −log10 of the molar value. Where a SMILES comes first, the peptide text is derived from it. The star is where a group is joined. For = O=C*

Molecule	pEC50
CSCC[C@H](NC=O)C(=O)N[C@@H](CC(C)C)C(=O)N[C@@H](Cc1ccccc1)C(=O)O	5.35
CSCC[C@H](NC=O)C(=O)N[C@@H](CC(C)C)C(=O)N[C@@H](Cc1ccccc1)C(=O)N[C@@H](CCCCN)C(=O)O [fMLFK, fMet-Leu-Phe-Lys] (For-MLFK-OH)	5.21

The values you see were collected from paper PMC12881670.
